Values compiled from patent US20240197938A1.

tested on: all microbes (Candida albicans, Staphylococcus aureus, Staphylococcus epidermidis, Escherichia coli, Salmonella abony, Listeria monocytogenes); assay: ASTM E2315-16 Time-Kill Procedure, average across all microbes; type: cell-based; settings: 10 minutes; 1.0 wt % active
For each record, write down the corresponding average Log Reduction (LR) in microbial population across all microbes.
// no unit string in output, number only

Q: Which measured average Log Reduction (LR) in microbial population across all microbes value corresponds to N=C(NCCCCCCNC(=N)NC(=N)Nc1ccc(Cl)cc1)NC(=N)Nc1ccc(Cl)cc1.O=C(O)C(O)C(O)C(O)C(O)C(O)CO.O=C(O)C(O)C(O)C(O)C(O)C(O)CO [Sample G, chlorhexidine di-α-glucoheptonate] ?
A: 5.34

Q: What about this compound? CC(=O)O.CC(=O)O.NC(=N\CCCCCC/N=C(N)/N=C(\N)Nc1ccc(Cl)cc1)/N=C(\N)Nc1ccc(Cl)cc1 [Sample P, chlorhexidine diacetate]
A: 5.17

Q: What about this compound? N=C(NCCCCCCNC(=N)NC(=N)Nc1ccc(Cl)cc1)NC(=N)Nc1ccc(Cl)cc1.O=C(O)[C@H](O)[C@@H](O)[C@H](O)[C@H](O)CO.O=C(O)[C@H](O)[C@@H](O)[C@H](O)[C@H](O)CO [Sample I, chlorhexidine digluconate]
A: 5.46

Q: What about this compound? N=C(NCCCCCCNC(=N)NC(=N)Nc1ccc(Cl)cc1)NC(=N)Nc1ccc(Cl)cc1.O=C(O)C(O)C(O)C(O)C(O)C(O)CO.O=C(O)C(O)C(O)C(O)C(O)C(O)CO [Sample H, chlorhexidine di-β73-glucoheptonate]
A: 5.51

###

tested on: Salmonella abony; test: ASTM E2315-16 Time-Kill Procedure; assay type: cell-based; conditions: 30 seconds; 0.20% (wt. %)
RECORDED_METRIC: Log Reduction

Q: Which measured Log Reduction value corresponds to N=C(NCCCCCCNC(=N)NC(=N)Nc1ccc(Cl)cc1)NC(=N)Nc1ccc(Cl)cc1.O=C(O)[C@H](O)[C@@H](O)[C@H](O)[C@H](O)CO.O=C(O)[C@H](O)[C@@H](O)[C@H](O)[C@H](O)CO [Sample I, chlorhexidine digluconate] ?
A: 1.86

Q: What about this compound? N=C(NCCCCCCNC(=N)NC(=N)Nc1ccc(Cl)cc1)NC(=N)Nc1ccc(Cl)cc1.O=C(O)C(O)C(O)C(O)C(O)C(O)CO.O=C(O)C(O)C(O)C(O)C(O)C(O)CO [Sample G, chlorhexidine di-α-glucoheptonate]
A: 3.04

Q: What about this compound? N=C(NCCCCCCNC(=N)NC(=N)Nc1ccc(Cl)cc1)NC(=N)Nc1ccc(Cl)cc1.O=C(O)C(O)C(O)C(O)C(O)C(O)CO.O=C(O)C(O)C(O)C(O)C(O)C(O)CO [Sample H, chlorhexidine di-β73-glucoheptonate]
A: 3.14

Q: What about this compound? CC(=O)O.CC(=O)O.NC(=N\CCCCCC/N=C(N)/N=C(\N)Nc1ccc(Cl)cc1)/N=C(\N)Nc1ccc(Cl)cc1 [Sample P, chlorhexidine diacetate]
A: 2.17

###

For each record, write down the corresponding Calculated CMC.
test: Bubble pressure tensiometry (dynamic surface tension, calculated CMC); format: physicochemical; conditions: bubble tensiometry
Reply numerically in M, unit not repeated.

Q: Which measured Calculated CMC value corresponds to N=C(NCCCCCCNC(=N)NC(=N)Nc1ccc(Cl)cc1)NC(=N)Nc1ccc(Cl)cc1.O=C(O)C(O)C(O)C(O)C(O)C(O)CO.O=C(O)C(O)C(O)C(O)C(O)C(O)CO [RM15A, Chlorhexidine di-β81-glucoheptonate] ?
A: 0.0173

Q: What about this compound? N=C(NCCCCCCNC(=N)NC(=N)Nc1ccc(Cl)cc1)NC(=N)Nc1ccc(Cl)cc1.O=C(O)C(O)C(O)C(O)C(O)C(O)CO.O=C(O)C(O)C(O)C(O)C(O)C(O)CO [RM14A, Chlorhexidine di-β73-glucoheptonate]
A: 0.0168

Q: What about this compound? N=C(NCCCCCCNC(=N)NC(=N)Nc1ccc(Cl)cc1)NC(=N)Nc1ccc(Cl)cc1.O=C(O)[C@H](O)[C@@H](O)[C@H](O)[C@H](O)CO.O=C(O)[C@H](O)[C@@H](O)[C@H](O)[C@H](O)CO [RM12C, Chlorhexidine digluconate]
A: 0.0195

Q: What about this compound? N=C(NCCCCCCNC(=N)NC(=N)Nc1ccc(Cl)cc1)NC(=N)Nc1ccc(Cl)cc1.O=C(O)C(O)C(O)C(O)C(O)C(O)CO.O=C(O)C(O)C(O)C(O)C(O)C(O)CO [RM14B, Chlorhexidine di-β73-glucoheptonate]
A: 0.0167

Q: What about this compound? N=C(NCCCCCCNC(=N)NC(=N)Nc1ccc(Cl)cc1)NC(=N)Nc1ccc(Cl)cc1.O=C(O)C(O)C(O)C(O)C(O)C(O)CO.O=C(O)C(O)C(O)C(O)C(O)C(O)CO [RM13B, Chlorhexidine di-α-glucoheptonate]
A: 0.0167

Q: What about this compound? N=C(NCCCCCCNC(=N)NC(=N)Nc1ccc(Cl)cc1)NC(=N)Nc1ccc(Cl)cc1.O=C(O)[C@H](O)[C@@H](O)[C@H](O)[C@H](O)CO.O=C(O)[C@H](O)[C@@H](O)[C@H](O)[C@H](O)CO [RM12A, Chlorhexidine digluconate]
A: 0.0168

Q: What about this compound? N=C(NCCCCCCNC(=N)NC(=N)Nc1ccc(Cl)cc1)NC(=N)Nc1ccc(Cl)cc1.O=C(O)[C@H](O)[C@@H](O)[C@H](O)[C@H](O)CO.O=C(O)[C@H](O)[C@@H](O)[C@H](O)[C@H](O)CO [RM12B, Chlorhexidine digluconate]
A: 0.0195

Q: What about this compound? N=C(NCCCCCCNC(=N)NC(=N)Nc1ccc(Cl)cc1)NC(=N)Nc1ccc(Cl)cc1.O=C(O)C(O)C(O)C(O)C(O)C(O)CO.O=C(O)C(O)C(O)C(O)C(O)C(O)CO [RM13C, Chlorhexidine di-α-glucoheptonate]
A: 0.0198

Q: What about this compound? N=C(NCCCCCCNC(=N)NC(=N)Nc1ccc(Cl)cc1)NC(=N)Nc1ccc(Cl)cc1.O=C(O)C(O)C(O)C(O)C(O)C(O)CO.O=C(O)C(O)C(O)C(O)C(O)C(O)CO [RM13A, Chlorhexidine di-α-glucoheptonate]
A: 0.0200

Q: What about this compound? N=C(NCCCCCCNC(=N)NC(=N)Nc1ccc(Cl)cc1)NC(=N)Nc1ccc(Cl)cc1.O=C(O)C(O)C(O)C(O)C(O)C(O)CO.O=C(O)C(O)C(O)C(O)C(O)C(O)CO [RM14C, Chlorhexidine di-β73-glucoheptonate]
A: 0.0166
